# assay_text: wild-type TIM10 yeast growth inhibition – luminescence, uHTS, counter-screen for tim10-1 yeast inhibitor project, primary screen (AID 463195);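 note: wild-type TIM10 isogenic control strain grown at permissive 25 °C; 0% = DMSO yeast wells and 100% = minimal medium wells without yeast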
# test_parameters: S. cerevisiae TIM10 strain growth, BacTiter-Glo luminescence, 24 h; at 10 µM; active compounds read high
Screen size: about 330,000 compounds; about 4,600 (1.4%) were called active. What follows is part of a selection rich in actives, with near analogues and random picks from the rest.
For each entry below, report its inhibition value.

input: Form field: reported inhibition of `Cc1nn(Cc2ccccc2Cl)c(C)c1NC(=O)Cn1nc([N+](=O)[O-])c(Cl)c1C`
output: 2.84% (inactive)

input: Query CC(c1ccccc1)n1c(NCCCn2ccnc2)nc2c1c(=O)[nH]c(=O)n2C (stereo not given) next
output: 1.78% (inactive)

input: What about `Cc1ccc(S(=O)(=O)N2CCOCC2)cc1C(=O)NC(=S)N(Cc1ccccc1)C(C)C` ?
output: 15.5% (inactive)

input: Query `O=C(Cn1nc(CNc2ccc(Cl)cc2)[n+]2c1CCCCC2)c1ccc(Cl)cc1` next
output: -4.18% (inactive)

input: Similarly, `O=c1oc(-c2ccccc2NS(=O)(=O)c2ccc(Cl)cc2)nc2ccccc12` ?
output: 59.4% (active)

input: Please answer likewise for CCC(C)NC(=O)c1nn(C)c(=O)c2ccccc12 (stereo not given)
output: 1.61% (inactive)

input: Field entry: `CNC(=O)/C(C#N)=C/c1c(F)cccc1Cl`
output: 59.2% (active)

input: What about `O=[N+]([O-])c1ccccc1S(=O)(=O)Nc1cccc2cccnc12` ?
output: 44.6% (active)

input: Please do the same for `COc1ccc(-c2oc3ncnc(NCCCO)c3c2-c2ccc(OC)cc2)cc1` as well.
output: 17.8% (inactive)

input: Could you do the same for `COCCNC(=S)N(CCc1c(C)[nH]c2ccc(C)cc12)Cc1cccnc1` , please?
output: -1.03% (inactive)

input: Repeat for the following compound: `CCO/C=C1\C(=O)N(c2ccc(OCC)cc2)C(=O)c2ccccc21`
output: 1.43% (inactive)

input: Param item: O=c1c2ccccc2nnn1CSc1nc2sc3c(c2c(=O)n1CC1CCCO1)CCC3 (stereo not given)
output: 25.8% (inactive)

input: # iterate: `COc1ccc(Nc2cc(=O)oc3ccccc23)cc1`
output: -15.1% (inactive)

input: Also check `C[C@H]1CN([C@@H](C)CO)C(=O)Cc2cc(NS(C)(=O)=O)ccc2O[C@@H]1CN(C)CC1CC1`
output: -6.97% (inactive)

input: Now try `Cc1cc(-c2ccccc2)nc(N2CCC(C(=O)NC34CC5CC(CC(C5)C3)C4)CC2)n1` .
output: 19.8% (inactive)

* * *

For each entry below, report its inhibition value.
# assay_text: wild-type TIM10 yeast growth inhibition – luminescence, uHTS, counter-screen for tim10-1 yeast inhibitor project, primary screen (AID 463195);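 note: wild-type TIM10 isogenic control strain grown at permissive 25 °C; 0% = DMSO yeast wells and 100% = minimal medium wells without yeast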
# test_parameters: S. cerevisiae TIM10 strain growth, BacTiter-Glo luminescence, 24 h; at 10 µM; active compounds read high
Hit rate of the full screen: of about 330,000 compounds, about 4,600 (1.4%) were called active. For the sample, actives were picked, then their nearest neighbours and some compounds at random.
Quick reminder: number only, in %, skip the unit.

input: Give the measured inhibition of COc1ccc(OC)c2sc(NC(=O)C3COc4ccccc4O3)nc12 (configuration not stated) .
output: 43.3

input: Next compound up: `O=c1[nH]cnc2c1c(-c1ccccc1)cn2-c1ccc(F)cc1`
output: 42.6

input: And then `Cc1ccc(NC(=O)CN(C)C(=O)Cn2nnc(-c3ccccc3)n2)cc1` , what is it?
output: 0.534

input: Now consider COc1ccc(C2CC(=O)Oc3ccc(C(C)(C)C)cc32)cc1 (configuration not stated) .
output: -0.738

input: Would you kindly repeat that for `COc1cc(C(=O)NN(CCC#N)C2=NS(=O)(=O)c3ccccc32)cc(OC)c1OC` ?
output: 8.55

input: What do we get for `CC(=O)N1c2ccccc2N(Cc2ccc([N+](=O)[O-])cc2)C(=O)C1(C)C` ?
output: 27.8

input: Now give it for O=C1NC(=O)C2C1C(c1ccc([N+](=O)[O-])cc1)=NN2Cc1ccccc1 (configuration not stated) too.
output: 46.2

input: Further, for CC(C)C(NC(=O)C1CCC(C(C)(C)C)CC1)C(=O)NCCCN1CCCCC1 (configuration not stated) ?
output: 6.75

input: And `O=C(OCCOCn1cc(Br)c(=O)[nH]c1=O)c1ccccc1` ?
output: -12.6

input: Can you handle `O=C(c1ccc(-n2cnnn2)cc1)N1CCN(C(c2ccccc2)c2ccccc2)CC1` next?
output: 2.74

input: Repeat with COc1cc(SC)ccc1C(=O)NNC(=O)C1COc2ccccc2O1 (configuration not stated)
output: -2.79

input: What about this compound? `O=c1c2c(-c3ccccc3)ccnc2[nH]n1-c1ccccc1`
output: -17.3

Entry source: PubChem BioAssay AID463195
